tested on: NCI-H226 lung; experiment: NCI-60 one-dose screen, 48 h; conditions: 10 µM unless noted
About 83,000 compounds went through this panel and 20% of them were active in at least one assay; those are over-represented in the sample as a whole. Activity calls are given as the source filed them. How the source made its calls: active means growth percent below 10; inactive means the rest.
Classes used: yes (1) = active, no (0) = inactive

COMPOUND	TARGET ENTITY	QUALITATIVE LABEL
CS(=O)(=O)N1CCc2c(-c3cnc(N)nc3)nc(N3CCOCC3)nc21	NCI-H226 lung	yes (1)
C=C1C(=O)O[C@H]2[C@H]1CC/C(C=Nc1c(N)cc(C(F)(F)F)cc1C(F)(F)F)=C\CC[C@@]1(C)O[C@@H]21	NCI-H226 lung	yes (1)
CN1CCN(CCCOc2cccc3nc(Nc4ccc(Cl)c(C(F)(F)F)c4)ccc23)CC1	NCI-H226 lung	no (0)
CC(N)C(Cc1ccccc1)c1ccc(Cl)cc1 (centres undefined)	NCI-H226 lung	no (0)
Cc1ccc(F)c(NC(=O)Nc2ccc(-c3cccc4[nH]nc(N)c34)cc2)c1	NCI-H226 lung	no (0)
CC(C)Nc1cc(-c2c[nH]c(C(=O)N[C@H](CO)c3cccc(Cl)c3)c2)c(Cl)cn1	NCI-H226 lung	no (0)
COc1cc2c(Nc3ccc(Br)cc3F)ncnc2cc1OCC1CCN(C)CC1	NCI-H226 lung	no (0)
O=C(Cn1c(=O)ccn(CCCCCCCCOc2ccc(Br)cc2)c1=O)Nc1ccc(Oc2ccc(Cl)cc2)cc1	NCI-H226 lung	no (0)
O=C(Cn1ccc2ccccc21)Nc1ccc(-c2nc3ccccc3s2)cc1	NCI-H226 lung	no (0)
